# systemUnderTest: human MAGL (Homo sapiens, UniProt Q99685)
# Sequence (Q99685 1-303): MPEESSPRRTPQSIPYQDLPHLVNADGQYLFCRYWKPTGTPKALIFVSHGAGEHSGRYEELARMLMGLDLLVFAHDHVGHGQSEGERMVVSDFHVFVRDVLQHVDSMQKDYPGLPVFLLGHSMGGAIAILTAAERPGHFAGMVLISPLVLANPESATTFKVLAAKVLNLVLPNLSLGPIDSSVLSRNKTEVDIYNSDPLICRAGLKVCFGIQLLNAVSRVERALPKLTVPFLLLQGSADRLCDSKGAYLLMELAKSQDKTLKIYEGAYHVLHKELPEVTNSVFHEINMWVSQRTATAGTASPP
# experimentDescription: In vitro MAGL inhibition assay (2-AG hydrolysis followed by mass spectrometry)
# Type: biochemical
# details: Table 2; mean of three independent measurements ± SD; read-out: hMAGL IC50±SD
Overview of recorded pIC50 for various compounds
The read-out pIC50 is expressed as -log10 of concentration in moles per litre.

compound	testValue
O=C(NCCCCCOc1ccccc1CC1CC2(C1)CN(C(=O)O[C@H](CO)C(F)(F)F)C2)O[C@H]1CC/C=C/CCC1	9.51
O=C1NC2(CO1)CN(C(=O)N1CC3(CC(Cc4ccccc4OCCNc4ccc([N+](=O)[O-])c5c4NON5)C3)C1)C2	10.05
CN(C)c1ccc2c(c1)[Si](C)(C)c1cc(N(C)C)ccc1C21OC(=O)c2ccc(C(=O)NCCCCCOc3ccccc3CC3CC4(C3)CN(C(=O)OC(C(F)(F)F)C(F)(F)F)C4)cc21 (centres unmarked)	8.94

Consider the compound shown here: C#CCCCC(=O)NCCOc1ccccc1CC1CC2(C1)CN(C(=O)OC(C(F)(F)F)C(F)(F)F)C2 What is its recorded pIC50? 9.85

Consider the compound shown here: CN(C)c1ccc2c(c1)[Si](C)(C)c1cc(N(C)C)ccc1C21OC(=O)c2ccc(C(=O)NCCCCCOc3ccccc3CC3CC4(C3)CN(C(=O)N3CC5(COC(=O)N5)C3)C4)cc21 (centres unmarked) What is its recorded pIC50? 9.82

Origin of the recorded values: paper PMC11878344
